assay-target: mu receptor (Rattus norvegicus, UniProt P33535)
Construct: The brain tissue, rat whole brain minus cerebellum for mu was homogenized; from tissue; host or cells: brain minus cerebellum of male Sprague Dawley rats, homogenate fraction
Sequence (P33535 whole entry): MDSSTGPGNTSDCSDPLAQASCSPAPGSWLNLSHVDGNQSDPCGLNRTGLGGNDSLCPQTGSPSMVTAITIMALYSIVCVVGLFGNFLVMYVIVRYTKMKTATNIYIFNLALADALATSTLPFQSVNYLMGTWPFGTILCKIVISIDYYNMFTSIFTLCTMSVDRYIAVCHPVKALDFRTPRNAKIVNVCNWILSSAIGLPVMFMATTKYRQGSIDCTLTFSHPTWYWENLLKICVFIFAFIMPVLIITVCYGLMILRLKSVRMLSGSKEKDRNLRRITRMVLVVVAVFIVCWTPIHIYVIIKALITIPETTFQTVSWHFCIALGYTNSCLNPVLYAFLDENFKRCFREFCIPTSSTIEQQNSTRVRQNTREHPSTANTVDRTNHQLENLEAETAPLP
assay-overview: Naloxone [3H] opioid receptor binding assay (mu receptor)
Design: species or system rat (male Sprague Dawley)
run-parameters: […]; rat whole brain minus cerebellum; [3H]naloxone 0.5 nM; pH 7.4, 37° C., 20 min; read-out: Ki
Where a name gives a salt, the structure may show the parent alone.
# strict inequality: Ki < 1 nM yields 1, everything else yields 0

Would you kindly verify if Ki of C[C@H]1CN(CCCN(C(=O)CCCC(=O)O)C2CCCCC2)CC[C@@]1(C)c1cccc(O)c1 (relative stereo) [Example 25] is strictly less than 1 nM?
0

Also, CCNC(=O)COC(=O)CCCC(=O)N[C@@H](CC1CCCCC1)CN1CC[C@@](C)(c2cccc(O)c2)[C@@H](C)C1 [Example 66] please.
0

Also, CCOC(=O)CC(=O)N[C@H](Cc1ccccc1)CN1CC[C@@](C)(c2cccc(O)c2)[C@@H](C)C1 [Example 10, hydrochloride] please.
0

Also, Cc1oc(=O)oc1COC(=O)CCCC(=O)N[C@@H](CC1CCCCC1)CN1CC[C@@](C)(c2cccc(O)c2)[C@@H](C)C1 [Example 70] please.
0

Also, CCOC(=O)CCC(=O)NC(CCN1CC[C@@](C)(c2cccc(O)c2)[C@@H](C)C1)CC(C)C (single isomer, unassigned) [Example 2A] please.
1

Also, CCOC(=O)CCC(=O)NC(CCN1CC[C@@](C)(c2cccc(O)c2)[C@@H](C)C1)CC(C)C (some centres unmarked) [Example 2B] please.
0

Also, CC(C)CC(=O)NCCCC(=O)N(CCN1CC[C@@](C)(c2cccc(O)c2)[C@@H](C)C1)C1CCCCC1 (relative stereo) [Example 40, hydrochloride] please.
0

Also, C[C@H]1CN(CC(Cc2ccccc2)NC(=O)CCCNC(=O)OC(C)(C)C)CC[C@@]1(C)c1cccc(O)c1 (some centres unmarked) [Example 18, monohydrochloride] please.
1

Data origin: patent US5159081A
